t½ by entry:
target: SARS-COV-2 RBD extracellular domain expressed with a C-terminal mouse IgG2a (SARS-CoV-2); experiment: SPR Biacore, mAb captured via anti-hFc, 25 C
Report only the number, with the unit h understood.

Input line: Supply t½ value. Item: mAb10939 (antibody, V domains shown) VH: EVQLVESGGGLVQPGGSLRLSCAASGLTVSSNYMNWVRQVPGKGLEWVSVIYSGGSKFYVDSVKGRFTISRHNSKNTLYLQMNSLRPEDTAVYYCTRDAQYYGMDVWGQGTTVTVSS VL: DIQMTQSPSSLSASVGDRVTITCRASQSISTYLHWYQQKPGEAPKLLIYAASSLQSGVPSRFSGSGSGTDFTLTISSLQPEDFATYYCQQSYSTPPEIFGQGTKLEIKR
Output line: 2.2

Input line: Supply t½ value. Item: mAb10984 (antibody, V domains shown) VH: EVQLVESGGGLVQPGGSLRLSCAASGLTVNRNYMSWVRQAPGKGLEWVSLIYSGGSTYYADSVKGRFTISRDNSKNTLYLQMNSLRLEDTAVYYCARGELGIPYGMDVWGQGTTVTVSS VL: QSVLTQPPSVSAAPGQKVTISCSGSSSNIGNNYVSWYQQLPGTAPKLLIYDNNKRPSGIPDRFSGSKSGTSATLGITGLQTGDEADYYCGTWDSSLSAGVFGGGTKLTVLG
Output line: 4.85

Input line: Supply t½ value. Item: mAb10914 (antibody, V domains shown) VH: EVQLVESGGGLVQPGGSLRLSCAASGLIVSRNYMIWVRQAPGKGLEWVSVIYSGGSTFYADSVKGRFTISRHNSKNTLYLQMNSLRAEDTAVYYCARDLGTGGMDVWGQGTTVTVSS VL: DIQLTQSPSFLSASVGDRVTITCWASQGISSYLAWYQQKPGKAPKLLIYAASTLQSGVPSRFSGSGSGTEFTLTISSLQPEDFATYYCQQLNSYPLTFGGGTKVEIKR
Output line: 1.38

Input line: Supply t½ value. Item: mAb10989 (antibody, V domains shown) VH: QVQLVQSGAEVKKPGASVKVSCKASGYIFTGYYMHWVRQAPGQGLEWMGWINPNSGGANYAQKFQGRVTLTRDTSITTVYMELSRLRFDDTAVYYCARGSRYDWNQNNWFDPWGQGTLVTVSS VL: QSALTQPASVSGSPGQSITISCTGTSSDVGTYNYVSWYQQHPGKAPKLMIFDVSNRPSGVSDRFSGSKSGNTASLTISGLQAEDEADYYCSSFTTSSTVVFGGGTKLTVLG
Output line: 2

Input line: Supply t½ value. Item: mAb10982 (antibody, V domains shown) VH: EVQLVESGGGLVQPGGSLRLSCAASGLTVSSNYMSWVRQAPGKGLEWVSVIYSGGTTYYADSVKGRFTISRHNSKNTLSLQMNSLRAEDTAVYYCARGEGANYYGMDVWGQGTTVTVSS VL: QSVLTQPPSVSGAPGQRVTISCTGSSSNIGTGYDVHWYQQLPGTAPKLLIYGNSNRPSGVPDRFSGSKSGTSASLAITGLQAEDEADYYCQSYDSSLSGYVVFGGGTKLTVLG
Output line: 2.39
